- protocolText: Pharmacokinetics of Sax in plasma after oral 0.5 mg/kg (HPLC-MS/MS, noncompartmental analysis)
- Assay type: in vivo, GK rats
- conditionDetails: GK, rat, plasma, po, 0.5 mg/kg, depression group (CUMS-induced, GK rats), 0.5 mg/kg oral, n = 9, mean ± SD; read-out: Vz/F
measuredEndpoint: Vd/F (L)
Number only, in L; omit the unit.

Exercise: Suppose we examine the molecule `N#C[C@@H]1C[C@@H]2C[C@@H]2N1C(=O)[C@@H](N)C12CC3CC(CC(O)(C3)C1)C2` ; what Vd/F value has been reported?
Key: 29.8

====

- protocolText: Pharmacokinetics of Sax in plasma after oral 0.5 mg/kg (HPLC-MS/MS, noncompartmental analysis)
- Format: in vivo, GK rats
- conditionDetails: GK, rat, plasma, po, 0.5 mg/kg, depression group (CUMS-induced, GK rats), 0.5 mg/kg oral, n = 9, mean ± SD
measuredEndpoint: Tmax (h)
Write it as a number; the unit h goes unstated.

Exercise: Could you tell me which Tmax is on file for `N#C[C@@H]1C[C@@H]2C[C@@H]2N1C(=O)[C@@H](N)C12CC3CC(CC(O)(C3)C1)C2` ?
Key: 1.04

====

- protocolText: Pharmacokinetics of Sax in plasma after oral 0.5 mg/kg (HPLC-MS/MS, noncompartmental analysis)
- Assay type: in vivo, GK rats
- conditionDetails: GK, rat, plasma, po, 0.5 mg/kg, control group (diabetic GK rats), 0.5 mg/kg oral, n = 9, mean ± SD; read-out: T1/2z (converted)
measuredEndpoint: half-life (min)
Form entry: value (min) — number only.

Exercise: Returns the measured half-life for the input compound. Input: `N#C[C@@H]1C[C@@H]2C[C@@H]2N1C(=O)[C@@H](N)C12CC3CC(CC(O)(C3)C1)C2`
Key: 104

====

- protocolText: Pharmacokinetics of Sax in plasma after oral 0.5 mg/kg (HPLC-MS/MS, noncompartmental analysis)
- Type: in vivo, GK rats
- conditionDetails: GK, rat, 0.5 mg/kg; single plasma sample at 5 h after oral Sax (chromatogram, Fig. 3C); group not stated
- Procedure: All rats were fasted overnight but with free access to water. 0.5 mg/kg Sax (suspended in 5 g/L Carboxymethyl cellulose-Na) was given orally. Blood samples were collected by eye canthus at 0.17, 0.33, 0.5, 0.83, 1.17, 1.5, 2, 3, 5, 8 h. Then plasma samples were centrifuged to obtain plasma at 3,000 × g for 5 min. The samples were stored at −80 °C for analysis. The Sax concentration was assayed by the HPLC-tandem mass spectrometry (MS/MS) method ([Gao et al., 2012]). […]
measuredEndpoint: concentration at 5 h (ng/mL)
# value in ng/mL; strip the unit string

Exercise: Tell me the measured concentration at 5 h of `N#C[C@@H]1C[C@@H]2C[C@@H]2N1C(=O)[C@@H](N)C12CC3CC(CC(O)(C3)C1)C2` , please.
Key: 3.05

====

- protocolText: Pharmacokinetics of Sax in plasma after oral 0.5 mg/kg (HPLC-MS/MS, noncompartmental analysis)
- Assay type: in vivo, GK rats
- conditionDetails: GK, rat, plasma, po, 0.5 mg/kg, control group (diabetic GK rats), 0.5 mg/kg oral, n = 9, mean ± SD
measuredEndpoint: Cmax (ng/mL)
// units = ng/mL; emit number, no label

Exercise: I'd like to know its Cmax. The compound in question is N#C[C@@H]1C[C@@H]2C[C@@H]2N1C(=O)[C@@H](N)C12CC3CC(CC(O)(C3)C1)C2 [Sax]
Key: 20.5
